Source listed as the supplement of paper PMC12669032.

Test system: Odoribacter splanchnicus
testDescription: growth AUC relative to DMSO control (median of replicates) (fraction); higher = more growth (less inhibition), active = hit call of the paper;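 active = AUC reduced over 20% with Padj below 0.05 in at least 2 of 3 replicates; inactive = otherwise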
conditionInfo: 20 µM; 24 h
Write down the outcome that applies. Available outcomes: y = active, n = inactive

CC(C)CNC(=O)N1CCNC1=O	n
COc1ccc(NC(=O)N(C)C)cc1Cl	n

Given COC(=O)Cc1cccc2ccccc12 , state the outcome it received in this test.
n

Let us now turn to NC(=S)Nc1cccc2ccccc12
n

Let us now turn to CC(C)N(C(=O)C(=O)O)c1ccc(F)cc1
n

====

System: Odoribacter splanchnicus
testDescription: growth AUC relative to DMSO control (median of replicates) (fraction); higher = more growth (less inhibition), active = hit call of the paper
conditionInfo: 20 µM; 24 h
In this section, each of the molecules is paired with its reported growth AUC.
Number only, no unit.

CC(C)c1nn(C(=O)NC(C)(C)C)c(=O)n1N	1
CN(C)c1ccc(N=NS(=O)(=O)[O-])cc1.[Na+]	1.03
CC(C)CCCCCOC(=O)C(C)Oc1ccc(Cl)cc1Cl (stereo unspecified)	0.814
O=C(O)Cc1c(Cl)ccc(Cl)c1Cl	0.946
CC(C)N(C(=O)CS(=O)CC(=O)O)c1ccc(F)cc1 (stereo unspecified)	1.06

Read the next record carefully.
What does the record list as growth AUC for Br[C@@H]1CC[C@@H](Br)[C@@H](Br)CC[C@H](Br)[C@H](Br)CC[C@H]1Br ?
0.992

====

Tested on: Bacteroides stercoris
testDescription: growth AUC relative to DMSO control (median of replicates) (fraction); higher = more growth (less inhibition), active = hit call of the paper;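 active = AUC reduced over 20% with Padj below 0.05 in at least 2 of 3 replicates; inactive = otherwise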
conditionInfo: 20 µM; 24 h
Write down the outcome that applies. Available outcomes: YES (active), NO (inactive)

Below, 5 compounds whose answers are already recorded.
FC(F)(F)/N=C1\SC(=Nc2ccccc2)N(c2ccccc2)\C1=N\C(F)(F)F	NO
CC(=O)Oc1c(Cl)c(Cl)c(Cl)c(Cl)c1Cl	YES
C=CCc1ccc(OC)c(OC)c1	NO
CCSc1nc(NC(C)C)nc(NC(C)C)n1	NO
FC(F)(F)C(=NOCC1OCCO1)c1ccc(Cl)cc1	NO

Given CCOC(=O)C1CC(=O)C(=C(O)C2CC2)C(=O)C1 (stereo not drawn) , state the outcome it received in this test.
NO

Let us now turn to CN(C)C(N)=O
NO

Let us now turn to Cc1nc(C(F)(F)F)c(C(=O)Nc2c(Br)cc(OC(F)(F)F)cc2Br)s1
NO

Let us now turn to CN1CCC[C@H]1c1cccnc1
NO

Let us now turn to CCOC(=O)C(C)Oc1ccc(Oc2nc3ccc(Cl)cc3o2)cc1 (racemic)
NO

Let us now turn to CC(Oc1ccc(Cl)cc1Cl)C(=O)NC(C)(C#N)C(C)C (stereo not drawn)
NO

Let us now turn to CC(C)c1cc(Oc2ccccc2)cc(C(C)C)c1NC(=S)NC(C)(C)C
NO

Let us now turn to O=C(Nc1ccc(F)cc1)c1cccc(Oc2cccc(C(F)(F)F)c2)n1
NO

====

Tested on: Bacteroides uniformis
testDescription: growth AUC relative to DMSO control (median of replicates) (fraction); higher = more growth (less inhibition), active = hit call of the paper
conditionInfo: 20 µM; 24 h
propertyName: growth AUC
Number only, no unit.

Some entries whose results are on file:
COC(=O)c1ccc(C(F)(F)F)nc1S(=O)(=O)[N-]C(=O)Nc1nc(OC)cc(OC)n1.[Na+]	0.978
CCC(C)c1cc([N+](=O)[O-])cc([N+](=O)[O-])c1OC(=O)OC(C)C (stereo unspecified)	0.881
CN(C(=O)NC(C)(C)c1ccccc1)c1ccccc1	1.03
CCCCOCN(C(=O)CS(=O)(=O)[O-])c1c(CC)cccc1CC.[Na+]	1.03
CCNc1nc(Cl)nc(N(CC)CC)n1	0.951

Any idea what growth AUC came out for CCS(=O)(=O)c1nnc(N(C)C(=O)NC)s1 on Bacteroides uniformis?
0.995

Let us now turn to COc1nc(N)nc(NC(C)(C)C)n1
1

Let us now turn to COCCN(C(=O)CO)c1c(C)cccc1C(=O)O
0.961

Let us now turn to Nc1ccc(O)cc1
1.03

Let us now turn to Nc1cc(Cl)nc(C(=O)O)c1Cl
1.02

Let us now turn to COC(=O)C(C)Oc1ccc(Oc2ncc(C(F)(F)F)cc2Cl)cc1 (stereo unspecified)
0.886
